Assayed target: ECF‐PanT (Streptococcus pneumoniae, UniProt A0A0H2ZPG6+A0ACD7PRR9+Q04HV7+Q97N51)
Assay info: SPR binding to immobilized ECF‐PanT
Condition label: pH 7.5, read-out: k a
Description: The ECF‐PanT, ECF‐module, and ECF‐FolT2, each bearing a histidine tag, were immobilized on a high‐affinity poly‐nitrilotriacetic acid (poly‐NTA) sensor chip, which was initially activated using NiCl2. […] concentration of DMSO in all the samples was set to 5% v/v DMSO. […] The association time was set to 60 s, and the dissociation phase was recorded for 120 s. […] were calculated by sequential subtractions of the corresponding curves obtained from the reference flow cell and the running buffer (blank). […]
Value type: kon (M⁻¹ s⁻¹)
Reply with just the number (in M⁻¹ s⁻¹).

Lab note: O=C(O)c1cccc(NCc2ccc(-c3ccc(Cl)cc3)o2)c1 [Compound 4] gave kon of 399

Record O=C(O)c1cccc(NCc2ccc(-c3cccc(Cl)c3)o2)c1 [Compound 5] . Reported kon: 348

Entry CC(C)(C)OC(=O)Nc1ccc(OCc2cccc3ccccc23)cc1C(=O)O [Compound 3] , kon reported as 650

The compound identified as O=C(O)c1cccc(NCc2ccc(-c3ccccc3Cl)o2)c1 [Compound 6] registered its kon at 376

###

Assay info: In vitro MTT cytotoxicity assay, HepG2
Type: cell-based, human
Condition label: human, HepG2 cells, read-out: Percent (%) cell viability at 100 μM, HepG2 cells
Description: In vitro cytotoxicity evaluation […] with minor modifications, which will be detailed below. To obtain information regarding the toxicity of our compounds, their impact on the viability of human cells was investigated. […] The living cell mass was determined 48 h after treatment with compounds by adding 0.1 volumes of 3-(4,5-dimethylthiazol-2-yl)-2,5-diphenyltetrazolium bromide (MTT) solution (5 mg/mL sterile PBS) (Sigma, St. Louis, MO) to the wells. […]
Assignment: determine reported viability at 48 h, 100 µM for the given molecules.
Respond with the bare value in %.

Lab book: viability at 48 h, 100 µM of O=C(O)c1cccc(NCc2ccc(-c3cccc(Cl)c3)o2)c1 [Compound 5] noted as 106

The measured viability at 48 h, 100 µM associated with O=C(O)c1cccc(NCc2ccc(-c3ccc(Cl)cc3)o2)c1 [Compound 4] reads 88

Just so you know, measured viability at 48 h, 100 µM for O=C(O)c1cccc(NCc2ccc(-c3ccccc3Cl)o2)c1 [Compound 6] came out at 105

###

Assayed target: ECF‐PanT (Streptococcus pneumoniae, UniProt A0A0H2ZPG6+A0ACD7PRR9+Q04HV7+Q97N51)
Assay info: SPR binding to immobilized ECF‐PanT
Condition label: pH 7.5, read-out: k d
I'd appreciate it if you could supply koff values for the items below.
Give just the numeric value; s⁻¹ need not be written.

Fill in: ECF‐PanT (Streptococcus pneumoniae, UniProt A0A0H2ZPG6+A0ACD7PRR9+Q04HV7+Q97N51) koff for `O=C(O)c1cccc(NCc2ccc(-c3cccc(Cl)c3)o2)c1` = 0.157

Field koff (system: ECF‐PanT (Streptococcus pneumoniae, UniProt A0A0H2ZPG6+A0ACD7PRR9+Q04HV7+Q97N51)) for entry `CC(C)(C)OC(=O)Nc1ccc(OCc2cccc3ccccc23)cc1C(=O)O` = 0.0643

With ECF‐PanT (Streptococcus pneumoniae, UniProt A0A0H2ZPG6+A0ACD7PRR9+Q04HV7+Q97N51) as the test system, `O=C(O)c1cccc(NCc2ccc(-c3ccccc3Cl)o2)c1` showed koff of 0.147

The compound `O=C(O)c1cccc(NCc2ccc(-c3ccc(Cl)cc3)o2)c1` , when measured on ECF‐PanT (Streptococcus pneumoniae, UniProt A0A0H2ZPG6+A0ACD7PRR9+Q04HV7+Q97N51), yielded koff of 0.127

###

Assayed target: ECF‐PanT (Streptococcus pneumoniae, UniProt A0A0H2ZPG6+A0ACD7PRR9+Q04HV7+Q97N51)
Assay info: SPR binding to immobilized ECF‐PanT
Condition label: SPR, S. pneumoniae ECF‐PanT, global fit of kinetic curves, n = 2; read-out: Kinetic, K D
What Kd was measured for each of the following?
Just the number in µM, nothing appended.

Lab note: measured Kd of `O=C(O)c1cccc(NCc2ccc(-c3ccccc3Cl)o2)c1` was 391

Kd measured on `O=C(O)c1cccc(NCc2ccc(-c3cccc(Cl)c3)o2)c1` = 451

Form field Kd, entry `O=C(O)c1cccc(NCc2ccc(-c3ccc(Cl)cc3)o2)c1` : 317

###

Assayed target: ECF‐PanT (Streptococcus pneumoniae, UniProt A0A0H2ZPG6+A0ACD7PRR9+Q04HV7+Q97N51)
Assay info: SPR binding to immobilized ECF‐PanT
Condition label: Equilibrium, K D, SPR, S. pneumoniae ECF‐PanT, steady state fit, n = 2
Value type: Kd (µM)
// return numeric value only (unit: µM, not printed)

Per the records, this compound ( CC(C)(C)OC(=O)Nc1ccc(OCc2cccc3ccccc23)cc1C(=O)O [Compound 3] ) has Kd equal to 96

Query O=C(O)c1cc(OCc2cccc3ccccc23)ccc1O [Compound 1] yields Kd of 277

Note to self: Kd recorded for O=C(O)c1cc(OCc2ccc(Br)c3ccccc23)ccc1O [Compound 2] was 170

###

Assayed target: ECF‐FolT2 (Lactobacillus delbrueckii subsp. bulgaricus, UniProt Q1G929+Q1GBI8+Q1GBI9+Q1GBJ0)
Sequence (Q1GBJ0 whole entry): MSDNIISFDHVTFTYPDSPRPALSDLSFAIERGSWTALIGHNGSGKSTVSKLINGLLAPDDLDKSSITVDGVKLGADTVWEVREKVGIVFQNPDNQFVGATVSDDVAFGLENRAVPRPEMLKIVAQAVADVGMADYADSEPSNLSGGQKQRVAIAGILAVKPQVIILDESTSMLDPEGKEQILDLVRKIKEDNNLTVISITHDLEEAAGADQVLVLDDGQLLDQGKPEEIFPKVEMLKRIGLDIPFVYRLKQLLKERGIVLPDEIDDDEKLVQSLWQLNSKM
Sequence (Q1GBI9 whole entry): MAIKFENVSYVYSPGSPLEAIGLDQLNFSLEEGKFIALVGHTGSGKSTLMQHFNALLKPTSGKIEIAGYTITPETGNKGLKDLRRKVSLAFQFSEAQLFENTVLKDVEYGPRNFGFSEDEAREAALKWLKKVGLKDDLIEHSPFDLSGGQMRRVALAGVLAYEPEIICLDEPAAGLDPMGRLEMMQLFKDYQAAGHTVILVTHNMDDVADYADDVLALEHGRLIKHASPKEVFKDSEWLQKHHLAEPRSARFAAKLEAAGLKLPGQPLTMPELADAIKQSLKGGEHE
Sequence (Q1GBI8 entry or part of it): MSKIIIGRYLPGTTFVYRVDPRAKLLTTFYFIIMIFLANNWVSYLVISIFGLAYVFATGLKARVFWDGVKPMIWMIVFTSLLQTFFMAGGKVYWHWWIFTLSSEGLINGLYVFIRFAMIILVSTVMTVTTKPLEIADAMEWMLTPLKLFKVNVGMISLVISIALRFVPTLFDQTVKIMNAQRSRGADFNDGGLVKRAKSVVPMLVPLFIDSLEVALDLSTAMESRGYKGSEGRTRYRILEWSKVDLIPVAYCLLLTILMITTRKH
Sequence (Q1G929 entry or part of it): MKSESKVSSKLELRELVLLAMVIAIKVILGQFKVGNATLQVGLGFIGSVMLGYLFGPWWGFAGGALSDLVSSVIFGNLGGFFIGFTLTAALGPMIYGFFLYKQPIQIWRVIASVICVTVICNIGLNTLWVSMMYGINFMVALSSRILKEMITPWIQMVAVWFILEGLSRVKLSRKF
Assay info: SPR binding to immobilized ECF‐FolT2
Condition label: Kinetic, K D, SPR, L. delbrueckii ECF‐FolT2, global fit of kinetic curves, n = 2
For each entry below, report its Kd value.
Numbers only; they are read as µM.

`O=C(O)c1cc(OCc2cccc3ccccc23)ccc1O` has a reported Kd of 294

Looking up `CC(C)(C)OC(=O)Nc1ccc(OCc2cccc3ccccc23)cc1C(=O)O` , I see its Kd listed as 132

Record summary for `O=C(O)c1cc(OCc2ccc(Br)c3ccccc23)ccc1O` : reported Kd = 185
